Reference source: ChEMBL document CHEMBL1146540

Each entry below carries its reported GI50.
System: SF-268
procedure.text: Cytotoxicity against human SF268 cells
Assay type: functional
Record the value in µg/mL, omitting the unit from your answer.

Previously resolved entries follow.
[[record]]
compound = "CC(C)=CCc1c(C)cc(O)c2c(O)c3c(cc12)C(CC=C(C)C)(CC=C(C)C)C(O)=CC3=O"
endpoint_value = 6

[[record]]
compound = "COc1cc2cc3c(c(O)c2c2c1C=CC(C)(C)O2)C(=O)CC(C)(O)C3 (centres undefined)"
endpoint_value = 2.5

[[record]]
compound = "CC(C)=CCc1c(C)cc2cc3c(c(O)c2c1O)C(=O)C=C(O)C3(CC=C(C)C)CC=C(C)C"
endpoint_value = 4.9


Req: Look at this compound and give its reported GI50. COc1cc2cc3c(c(O)c2c(O)c1/C=C/C(C)C)C(=O)CC(C)(O)C3 (centres undefined)
Resp: 2.2

---

Test system: SF-268
procedure.text: Cytotoxicity against human SF268 cells
Format: functional
outcome.measure: GI50 (µg/mL)
Quick note: give the figure in µg/mL, leave out the unit.

[[record]]
compound = "CC(C)=CCC1=C(O)C(CC=C(C)C)(CC=C(C)C)c2cc3cc(C)cc(O)c3c(O)c2C1=O"
quantity_unit = "µg/mL"
endpoint_value = 4

[[record]]
compound = "CC(C)=CCC1(CC=C(C)C)C(O)=CC(=O)c2c1cc1cc(C)cc(O)c1c2O"
quantity_unit = "µg/mL"
endpoint_value = 5.7

[[record]]
compound = "CC(C)=CCOc1cc(O)c2c(O)c3c(cc2c1)CC(C)(O)CC3=O (centres undefined)"
quantity_unit = "µg/mL"
endpoint_value = 0.6


// below: GI50 requested for another compound
Req: Entry "CC(C)=CCC1=C(O)C(CC=C(C)C)(CC=C(C)C)c2cc3c(CC=C(C)C)c(C)cc(O)c3c(O)c2C1=O" , system SF-268: what GI50 was measured?
Resp: 4

---

Test system: MCF7
procedure.text: Cytotoxicity against human MCF7 cells
Assay type: functional
Measured GI50, listed per entry.

Example cases with answers are listed next.
[[record]]
molecule = "CC(C)=CCc1c(C)cc2cc3c(c(O)c2c1O)C(=O)C=C(O)C3(CC=C(C)C)CC=C(C)C"
outcome_measure = "GI50"
endpoint_value = "5 µg/mL"

[[record]]
molecule = "COc1cc2cc3c(c(O)c2c2c1C=CC(C)(C)O2)C(=O)CC(C)(O)C3 (stereo not drawn)"
outcome_measure = "GI50"
endpoint_value = "1.6 µg/mL"

[[record]]
molecule = "CC(C)=CCOc1cc(O)c2c(O)c3c(cc2c1)CC(C)(O)CC3=O (stereo not drawn)"
outcome_measure = "GI50"
endpoint_value = "0.4 µg/mL"

[[record]]
molecule = "CC(C)=CCC1=C(O)C(CC=C(C)C)(CC=C(C)C)c2cc3c(CC=C(C)C)c(C)cc(O)c3c(O)c2C1=O"
outcome_measure = "GI50"
endpoint_value = "4.8 µg/mL"

[[record]]
molecule = "CC(C)=CCc1c(C)cc(O)c2c(O)c3c(cc12)C(CC=C(C)C)(CC=C(C)C)C(O)=CC3=O"
outcome_measure = "GI50"
endpoint_value = "6 µg/mL"


Req: GI50 of "CC(C)=CCC1(CC=C(C)C)C(O)=CC(=O)c2c1cc1cc(C)cc(O)c1c2O" on MCF7?
Resp: 5.2 µg/mL

Req: Note, next up: COc1cc2cc3c(c(O)c2c(O)c1/C=C/C(C)C)C(=O)CC(C)(O)C3 (stereo not drawn)
Resp: 1.8 µg/mL

Req: Lookup "CC(C)=CCC1=C(O)C(CC=C(C)C)(CC=C(C)C)c2cc3cc(C)cc(O)c3c(O)c2C1=O"
Resp: 5 µg/mL
